B1: POMT2 (parent)
chain: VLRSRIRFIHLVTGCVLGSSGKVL

variants of: B1; test: protein stability index of a GFP-peptide fusion (GPS, HEK-293T) (PSI 1-6); higher = more stable; details: c terminus: a fixed tail appended;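 also: lentivirally expressed fusions sorted by FACS into six bins by GFP to DsRed ratio, PSI derived from sequencing read proportions per bin multiplied by bin number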
measured.endpoint: protein stability index
Could you respond with only the numeric value?

Example entries begin here.
> print(dat)
                          seq.text  value.measured
1   HLRSRIRFIHLVTGCVLGSSGKVL [V1H]             2.8
2  VLRSRIRFIHLVTGCILGSSGKVL [V16I]             1.6
3   VLRYRIRFIHLVTGCVLGSSGKVL [S4Y]            3.18
4   VLRSRIKFIHLVTGCVLGSSGKVL [R7K]            3.58
5  VLRSRIRFIHLVTGKVLGSSGKVL [C15K]            3.31

Prompt: Looking for the measured protein stability index of VLRSRIRFIHKVTGCVLGSSGKVL [L11K] , can you help?
Completion: 2.13

Prompt: Further, for VLRSRIRFIHLVTGCVLGSSPKVL [G21P] ?
Completion: 2.65

Prompt: Record: VLRSRIRFIHLVTGCVLGSSQKVL [G21Q]
Completion: 3.44

Prompt: Try this variant too: VLRSRIRFKHLVTGCVLGSSGKVL [I9K]
Completion: 2.98
